Target system: UGT1A9 (Homo sapiens)
Sequence (O60656 26-530): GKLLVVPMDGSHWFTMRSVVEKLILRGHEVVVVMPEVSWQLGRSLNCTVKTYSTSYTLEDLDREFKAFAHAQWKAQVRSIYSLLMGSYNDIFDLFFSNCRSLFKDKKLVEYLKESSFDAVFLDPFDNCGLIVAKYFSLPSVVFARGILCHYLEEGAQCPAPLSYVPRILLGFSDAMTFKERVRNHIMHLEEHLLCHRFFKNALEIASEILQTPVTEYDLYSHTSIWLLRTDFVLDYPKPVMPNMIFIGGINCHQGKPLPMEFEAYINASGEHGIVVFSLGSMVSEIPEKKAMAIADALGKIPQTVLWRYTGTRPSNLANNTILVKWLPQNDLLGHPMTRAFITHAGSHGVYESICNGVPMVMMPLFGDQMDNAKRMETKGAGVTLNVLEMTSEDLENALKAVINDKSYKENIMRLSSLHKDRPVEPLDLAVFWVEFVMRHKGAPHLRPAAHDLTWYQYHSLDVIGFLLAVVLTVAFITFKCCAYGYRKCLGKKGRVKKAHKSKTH
pIC50: −log10 of the molar value.
I'd be grateful if you could share measured pIC50 for these entries.

If you can, please state the reported pIC50 value of Oc1ccc(/C=C\c2cc(O)cc(O)c2)cc1 [B, 3,5,4′-Trihydroxystilbene] .
< 4.30

If you can, please state the reported pIC50 value of Oc1ccc(/C=C/c2cc(O)cc(O)c2)cc1 [A, 3,5,4′-Trihydroxystilbene] .
< 4.30

Source: paper PMC8470274
